Tested on: Escherichia coli
assay.procedure: Antibacterial activity against Escherichia coli ATCC 25922 after 18 to 20 hrs by broth microdilution assay
Format: functional
Measured MIC values are reported for all entries that follow.

Example results:
compound	observation.type	reported.measurement
CCCCCCCC1O[C@@H]2[C@@H]3C[C@H]([C@@H]2O1)[C@@H](C(=O)NCCNC(=N)NCc1ccccc1)[C@@H]3C(=O)NCCNC(=N)NCc1ccccc1.Cl.Cl (stereo partly specified)	MIC	8 µg/mL
Cl.Cl.N=C(N)NCCNC(=O)[C@@H]1[C@@H]2C[C@@H]([C@H]3OC(CCCCCCCCCCCNc4ccc([N+](=O)[O-])c5nonc45)O[C@@H]23)[C@H]1C(=O)NCCNC(=N)N (stereo partly specified)	MIC	8 µg/mL
CCCCCCCCCCCCCCCC1O[C@@H]2[C@@H]3C[C@H]([C@@H]2O1)[C@@H](C(=O)NCCNC(=N)NCc1ccccc1)[C@@H]3C(=O)NCCNC(=N)NCc1ccccc1.Cl.Cl (stereo partly specified)	MIC	> 128 µg/mL
CCCNc1ccc2c3c(cccc13)C(=O)N(CCCCCCCCCCCC1O[C@@H]3[C@@H]4C[C@H]([C@@H]3O1)[C@@H](C(=O)NCCNC(=N)N)[C@@H]4C(=O)NCCNC(=N)N)C2=O.Cl.Cl (stereo partly specified)	MIC	> 32 µg/mL
Cl.Cl.Cl.N=C(N)NCCNC(=O)[C@@H]1[C@@H]2C[C@@H]([C@H]3OC(CCCCCCCCCCCN)O[C@@H]23)[C@H]1C(=O)NCCNC(=N)N (stereo partly specified)	MIC	> 32 µg/mL

Now let's try a different one.
Qu. Name the recorded MIC for CCCCCCCC1O[C@@H]2[C@@H]3C[C@H]([C@@H]2O1)[C@@H](C(=O)NCCNC(=O)c1ccc(C(=O)NC(=N)N)[nH]1)[C@@H]3C(=O)NCCNC(=O)c1ccc(C(=O)NC(=N)N)[nH]1.Cl.Cl (stereo partly specified) .
Ans. > 128 µg/mL

* * *

System: Staphylococcus aureus
assay.procedure: Antibacterial activity against glycopeptide-intermediate/methicillin-resistant Staphylococcus aureus NARSA NRS1 after 18 to 20 hrs by broth microdilution assay
Measured MIC values are reported for all entries that follow.
Note: unit µg/mL is implicit; provide only the numeric part.

Example results:
molecule	measured.target	MIC / µg/mL
CCCNc1ccc2c3c(cccc13)C(=O)N(CCCCCCCCCCCC1O[C@@H]3[C@@H]4C[C@H]([C@@H]3O1)[C@@H](C(=O)NCCNC(=N)N)[C@@H]4C(=O)NCCNC(=N)N)C2=O.Cl.Cl (stereo partly specified)	Staphylococcus aureus	4
Cl.Cl.Cl.N=C(N)NCCNC(=O)[C@@H]1[C@@H]2C[C@@H]([C@H]3OC(CCCCCCCCCCCN)O[C@@H]23)[C@H]1C(=O)NCCNC(=N)N (stereo partly specified)	Staphylococcus aureus	8
Cl.Cl.N=C(N)NCCNC(=O)[C@@H]1[C@@H]2C[C@@H]([C@H]3OC(CCCCCCCCCCCNc4ccc([N+](=O)[O-])c5nonc45)O[C@@H]23)[C@H]1C(=O)NCCNC(=N)N (stereo partly specified)	Staphylococcus aureus	4
CCCCCCCCCCCCCCCC1O[C@@H]2[C@@H]3C[C@H]([C@@H]2O1)[C@@H](C(=O)NCCNC(=N)NCc1ccccc1)[C@@H]3C(=O)NCCNC(=N)NCc1ccccc1.Cl.Cl (stereo partly specified)	Staphylococcus aureus	0.5

Now let's try a different one.
Qu. Name the recorded MIC for CCCCCCCC1O[C@@H]2[C@@H]3C[C@H]([C@@H]2O1)[C@@H](C(=O)NCCNC(=N)NCc1ccccc1)[C@@H]3C(=O)NCCNC(=N)NCc1ccccc1.Cl.Cl (stereo partly specified) .
Ans. 2

* * *

Test system: Staphylococcus aureus
assay.procedure: microbe, parasite or virus in culture
conditions.used: ATCC 43300
Description: Antibacterial activity against methicillin-resistant Staphylococcus aureus ATCC 43300 after 18 to 20 hrs by broth microdilution assay
observation.type: MIC (µg/mL)
Note: unit µg/mL is implicit; provide only the numeric part.

molecule	reported.measurement
CCCCCCCC1O[C@@H]2[C@@H]3C[C@H]([C@@H]2O1)[C@@H](C(=O)NCCNC(=N)NCc1ccccc1)[C@@H]3C(=O)NCCNC(=N)NCc1ccccc1.Cl.Cl (stereo partly drawn)	2
CCCNc1ccc2c3c(cccc13)C(=O)N(CCCCCCCCCCCC1O[C@@H]3[C@@H]4C[C@H]([C@@H]3O1)[C@@H](C(=O)NCCNC(=N)N)[C@@H]4C(=O)NCCNC(=N)N)C2=O.Cl.Cl (stereo partly drawn)	1

Now let's try a different one.
Qu. Name the recorded MIC for Cl.Cl.Cl.N=C(N)NCCNC(=O)[C@@H]1[C@@H]2C[C@@H]([C@H]3OC(CCCCCCCCCCCN)O[C@@H]23)[C@H]1C(=O)NCCNC(=N)N (stereo partly drawn) .
Ans. 16

* * *

System: Candida albicans
assay.procedure: Antifungal activity against Candida albicans ATCC 90028 after 18 to 20 hrs by broth microdilution assay
Format: functional
observation.type: MIC (µg/mL)
Note: unit µg/mL is implicit; provide only the numeric part.

compound	readout.units	MIC
CCCCCCCC1O[C@@H]2[C@@H]3C[C@H]([C@@H]2O1)[C@@H](C(=O)NCCNC(=N)NCc1ccccc1)[C@@H]3C(=O)NCCNC(=N)NCc1ccccc1.Cl.Cl (some centres undefined)	µg/mL	128
OC(Cn1cncn1)(Cn1cncn1)c1ccc(F)cc1F	µg/mL	1

Qu. Name the recorded MIC for CCCNc1ccc2c3c(cccc13)C(=O)N(CCCCCCCCCCCC1O[C@@H]3[C@@H]4C[C@H]([C@@H]3O1)[C@@H](C(=O)NCCNC(=N)N)[C@@H]4C(=O)NCCNC(=N)N)C2=O.Cl.Cl (some centres undefined) .
Ans. 128

Qu. Please do the same for Cl.Cl.N=C(N)NCCNC(=O)[C@@H]1[C@@H]2C[C@@H]([C@H]3OC(CCCCCCCCCCCNc4ccc([N+](=O)[O-])c5nonc45)O[C@@H]23)[C@H]1C(=O)NCCNC(=N)N (some centres undefined) as well.
Ans. 16

* * *

assay.procedure: Cytotoxicity against HEK293 cells after 24 hrs by resazurin dye-based fluorescence analysis
Assay type: cell-based
conditions.used: human
observation.type: CC50 at 24 h

Example results:
compound	observation.type	reported.measurement
CC/C(=C(\c1ccccc1)c1ccc(OCCN(C)C)cc1)c1ccccc1	CC50 at 24 h	13 µg/mL
CCCCCCCC1O[C@@H]2[C@@H]3C[C@H]([C@@H]2O1)[C@@H](C(=O)NCCNC(=O)c1ccc(C(=O)NC(=N)N)[nH]1)[C@@H]3C(=O)NCCNC(=O)c1ccc(C(=O)NC(=N)N)[nH]1.Cl.Cl (some centres not stated)	CC50 at 24 h	> 100 µg/mL
CCCNc1ccc2c3c(cccc13)C(=O)N(CCCCCCCCCCCC1O[C@@H]3[C@@H]4C[C@H]([C@@H]3O1)[C@@H](C(=O)NCCNC(=N)N)[C@@H]4C(=O)NCCNC(=N)N)C2=O.Cl.Cl (some centres not stated)	CC50 at 24 h	> 50 µg/mL
Cl.Cl.N=C(N)NCCNC(=O)[C@@H]1[C@@H]2C[C@@H]([C@H]3OC(CCCCCCCCCCCNc4ccc([N+](=O)[O-])c5nonc45)O[C@@H]23)[C@H]1C(=O)NCCNC(=N)N (some centres not stated)	CC50 at 24 h	> 50 µg/mL
CCCCCCCC1O[C@@H]2[C@@H]3C[C@H]([C@@H]2O1)[C@@H](C(=O)NCCNC(=N)NCc1ccccc1)[C@@H]3C(=O)NCCNC(=N)NCc1ccccc1.Cl.Cl (some centres not stated)	CC50 at 24 h	> 50 µg/mL
CCCCCCCCCCCCCCCC1O[C@@H]2[C@@H]3C[C@H]([C@@H]2O1)[C@@H](C(=O)NCCNC(=N)NCc1ccccc1)[C@@H]3C(=O)NCCNC(=N)NCc1ccccc1.Cl.Cl (some centres not stated)	CC50 at 24 h	7.8 µg/mL

Now let's try a different one.
Qu. Name the recorded CC50 at 24 h for Cl.Cl.Cl.N=C(N)NCCNC(=O)[C@@H]1[C@@H]2C[C@@H]([C@H]3OC(CCCCCCCCCCCN)O[C@@H]23)[C@H]1C(=O)NCCNC(=N)N (some centres not stated) .
Ans. > 50 µg/mL

* * *

Measured MIC values are reported for all entries that follow.
Tested on: Cryptococcus neoformans
assay.procedure: Antifungal activity against Cryptococcus neoformans H99 ATCC 208821 after 18 to 20 hrs by broth microdilution assay
Assay type: functional
conditions.used: var. grubii H99 ATCC 208821
Note: unit µg/mL is implicit; provide only the numeric part.

molecule	readout.units	MIC
CCCCCCCC1O[C@@H]2[C@@H]3C[C@H]([C@@H]2O1)[C@@H](C(=O)NCCNC(=N)NCc1ccccc1)[C@@H]3C(=O)NCCNC(=N)NCc1ccccc1.Cl.Cl (some centres undefined)	µg/mL	2

Qu. Name the recorded MIC for Cl.Cl.N=C(N)NCCNC(=O)[C@@H]1[C@@H]2C[C@@H]([C@H]3OC(CCCCCCCCCCCNc4ccc([N+](=O)[O-])c5nonc45)O[C@@H]23)[C@H]1C(=O)NCCNC(=N)N (some centres undefined) .
Ans. 4

Qu. Please do the same for "OC(Cn1cncn1)(Cn1cncn1)c1ccc(F)cc1F" as well.
Ans. 8

Qu. Please do the same for CCCNc1ccc2c3c(cccc13)C(=O)N(CCCCCCCCCCCC1O[C@@H]3[C@@H]4C[C@H]([C@@H]3O1)[C@@H](C(=O)NCCNC(=N)N)[C@@H]4C(=O)NCCNC(=N)N)C2=O.Cl.Cl (some centres undefined) as well.
Ans. 0.25
